- System: A2780cisR
- METHOD DESCRIPTION: MTT antiproliferative assay, 72 h
- Type: cell-based, human
- TEST CONDITIONS: MTT, 72 h incubation, mean ± SD; read-out: IC50 A2780cisR
REPORTED PROPERTY: IC50
// unit must come after the numeric part

What value of IC50 has been recorded for this entry: N.N.[Cl][Pt][Cl] [cisplatin, reference compound]
20000 nM

// same read-out, input: Cc1c(C)c2c3c4c1=CC=C[N]4[Pt][N]3C=CC=2.NCCNC(=O)Cc1ccccc1Nc1c(Cl)cccc1Cl.NCCNC(=O)Cc1ccccc1Nc1c(Cl)cccc1Cl.N[C@H]1CCCC[C@@H]1N [complex 4, Pt^IV56MeSS(DCF)2]
80 nM

// same read-out, input: Cc1c(C)c2cccnc2c2ncccc12.N[C@H]1CCCC[C@@H]1N.[Pt] [complex 1]
60 nM

// same read-out, input: Cc1c(C)c2c3c4c1=CC=C[N]4[Pt]([Cl])[N]3C=CC=2.NCCNC(=O)Cc1ccccc1Nc1c(Cl)cccc1Cl.N[C@H]1CCCC[C@@H]1N [complex 3, Pt(IV)56MESSenDCFCl]
130 nM

// same read-out, input: Cc1c(C)c2c3c4c1=CC=C[N]4[Pt]([Cl])([Cl])[N]3C=CC=2.N[C@H]1CCCC[C@@H]1N [complex 2, Pt^IV56MeSSCl2]
400 nM

----------
- METHOD DESCRIPTION: MTT assay in non-cancerous fibroblasts, 72 h
- Type: cell-based
- TEST CONDITIONS: MRC-5 cells (non-cancerous fibroblasts), non-cancerous human fibroblasts, 72 h incubation, mean ± SD
REPORTED PROPERTY: IC50 at 72 h (µM)
Write the value in µM as a bare number.

What value of IC50 at 72 h has been recorded for this entry: O=C([O-])Cc1ccccc1Nc1c(Cl)cccc1Cl.[Na+] [DCF, reference compound]
445

----------
Consider the following compounds; for each one, report its IC50.
- System: MRC-5
- METHOD DESCRIPTION: MTT assay in non-cancerous fibroblasts, 72 h
- Assay type: cell-based
- TEST CONDITIONS: non-cancerous human fibroblasts, 72 h incubation, mean ± SD
Write the value in µM as a bare number.

What value of IC50 has been recorded for this entry: N.N.[Cl][Pt][Cl] [cisplatin, reference compound]
7.3

// same read-out, input: Cc1c(C)c2c3c4c1=CC=C[N]4[Pt]([Cl])[N]3C=CC=2.NCCNC(=O)Cc1ccccc1Nc1c(Cl)cccc1Cl.N[C@H]1CCCC[C@@H]1N [complex 3, Pt(IV)56MESSenDCFCl]
0.7

// same read-out, input: Cc1c(C)c2c3c4c1=CC=C[N]4[Pt][N]3C=CC=2.NCCNC(=O)Cc1ccccc1Nc1c(Cl)cccc1Cl.NCCNC(=O)Cc1ccccc1Nc1c(Cl)cccc1Cl.N[C@H]1CCCC[C@@H]1N [complex 4, Pt^IV56MeSS(DCF)2]
0.32

// same read-out, input: Cc1c(C)c2cccnc2c2ncccc12.N[C@H]1CCCC[C@@H]1N.[Pt] [complex 1]
0.17

// same read-out, input: Cc1c(C)c2c3c4c1=CC=C[N]4[Pt]([Cl])([Cl])[N]3C=CC=2.N[C@H]1CCCC[C@@H]1N [complex 2, Pt^IV56MeSSCl2]
2.1

// same read-out, input: NCCNC(=O)Cc1ccccc1Nc1c(Cl)cccc1Cl [enDCF, diclofenac amide]
58

// provenance: paper PMC10291556
